pEC50 listing for selected compounds.
# TARGET_UNDER_TEST: RORγ-LBD (Homo sapiens (Human), UniProt P51449)
# Sequence (P51449 269-508): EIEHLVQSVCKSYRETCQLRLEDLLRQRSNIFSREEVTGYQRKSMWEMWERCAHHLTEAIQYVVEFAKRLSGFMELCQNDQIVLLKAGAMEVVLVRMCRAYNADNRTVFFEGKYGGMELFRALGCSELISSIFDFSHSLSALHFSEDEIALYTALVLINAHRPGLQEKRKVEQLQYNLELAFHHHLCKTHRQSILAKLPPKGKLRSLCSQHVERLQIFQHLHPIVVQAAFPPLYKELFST
# METHOD_SUMMARY: RORγ-Ligand Binding Domain (LBD) TR-FRET Assay Protocol II
# Type: biochemical
# APPLIED_CONDITIONS: purified RORγ-LBD, SRC1 peptide, overnight at 4° C.
The quantity pEC50 is defined as the negative base-10 logarithm of the molar concentration.

Take a look at these entries with their results.
1. N[C@H](CO)C(=O)NC1Cc2ncc(NC(=O)c3c(Cl)cccc3Cl)cc2N(S(=O)(=O)c2cccc(C(F)(F)F)c2)C1 (some centres unmarked) | 7.64
2. O=C(Nc1cc2c(cn1)cnn2S(=O)(=O)c1cccc(C(F)(F)F)c1)c1c(F)cccc1Cl | 5.36

Q: // Input: C[C@H](N)C(=O)N[C@@H]1Cc2ncc(NC(=O)c3c(Cl)cccc3Cl)cc2N(S(=O)(=O)c2cccc(C(F)(F)F)c2)C1 . Output its pEC50 only.
Result: 7.49

Q: // Input: CN(C)C(=O)NC1Cc2ncc(NC(=O)c3c(Cl)cccc3Cl)cc2N(S(=O)(=O)c2cccc(C(F)(F)F)c2)C1 (centres unmarked) . Output its pEC50 only.
Result: 8.00

Q: // Input: CC(=O)NC[C@H]1CN(S(=O)(=O)c2cccc(C)c2)c2cc(NC(=O)[C@@H](C)c3ccccc3)cnc2O1 . Output its pEC50 only.
Result: 6.97

Q: // Input: CC(C)(C)OC(=O)N[C@@H]1Cc2ncc(NC(=O)c3c(Cl)cccc3Cl)cc2N(S(=O)(=O)c2cccc(C(F)(F)F)c2)C1 . Output its pEC50 only.
Result: 7.62

Q: // Input: Cc1cccc(S(=O)(=O)N2C[C@H](NC(=O)[C@H](C)O)Cc3ncc(NC(=O)c4c(Cl)cccc4Cl)cc32)c1 . Output its pEC50 only.
Result: 7.64

Q: // Input: C[C@H](O)C(=O)N[C@@H]1Cc2ncc(NC(=O)c3c(Cl)cccc3Cl)cc2N(S(=O)(=O)c2cccc(C(F)(F)F)c2)C1 . Output its pEC50 only.
Result: 6.88

Q: // Input: CC(=O)NC[C@H]1CN(S(=O)(=O)c2cccc(C)c2)c2cc(NC(=O)c3c(F)cccc3Cl)cnc2O1 . Output its pEC50 only.
Result: 6.91

* * *

# TARGET_UNDER_TEST: RORγ-LBD (Homo sapiens (Human), UniProt P51449)
# METHOD_SUMMARY: RORγ-Ligand Binding Domain (LBD) TR-FRET Assay Protocol II
# Assay type: biochemical
# APPLIED_CONDITIONS: purified RORγ-LBD, SRC1 peptide, overnight at 4° C.
PROPERTY_NAME: pEC50
The quantity pEC50 is defined as the negative base-10 logarithm of the molar concentration.

Q: Please look at CCC(C)C(=O)Nc1cnc2c(c1)N(S(=O)(=O)c1cccc(C)c1)C[C@H](C)O2 (stereo partly drawn) and tell me its recorded pEC50 on RORγ-LBD (Homo sapiens (Human), UniProt P51449).
Result: 6.82

Q: Please look at Cc1cccc(S(=O)(=O)N2C[C@H](NC(=O)OC(C)(C)C)Cc3ncc(NC(=O)c4c(Cl)cccc4Cl)cc32)c1 and tell me its recorded pEC50 on RORγ-LBD (Homo sapiens (Human), UniProt P51449).
Result: 7.60

Q: Please look at CC(C)OC(=O)N[C@H]1Cc2ncc(NC(=O)c3c(Cl)cccc3Cl)cc2N(S(=O)(=O)c2cccc(C(F)(F)F)c2)C1 and tell me its recorded pEC50 on RORγ-LBD (Homo sapiens (Human), UniProt P51449).
Result: 7.44

Q: Please look at O=C(Nc1cnc2c(c1)N(S(=O)(=O)c1cccc(Cl)c1)C[C@H](CN1CCOCC1)O2)c1c(Cl)cccc1Cl and tell me its recorded pEC50 on RORγ-LBD (Homo sapiens (Human), UniProt P51449).
Result: 7.52

Q: Please look at N[C@H]1Cc2ncc(NC(=O)c3c(Cl)cccc3Cl)cc2N(S(=O)(=O)c2cccc(C(F)(F)F)c2)C1 [Compound 57] and tell me its recorded pEC50 on RORγ-LBD (Homo sapiens (Human), UniProt P51449).
Result: 7.62

Q: Please look at Cc1nn(C(F)F)cc1S(=O)(=O)n1ncc2cnc(NC(=O)c3c(F)cccc3Cl)cc21 and tell me its recorded pEC50 on RORγ-LBD (Homo sapiens (Human), UniProt P51449).
Result: 6.49

Q: Please look at C[C@H](C(=O)Nc1cnc2c(c1)N(S(=O)(=O)c1ccc(F)cc1)C[C@H](C)O2)c1ccccc1 and tell me its recorded pEC50 on RORγ-LBD (Homo sapiens (Human), UniProt P51449).
Result: 6.41

Q: Please look at Cc1nn(C(F)F)cc1S(=O)(=O)N1C[C@H](NC(=O)OC(C)C)Cc2ncc(NC(=O)c3c(F)cccc3Cl)cc21 and tell me its recorded pEC50 on RORγ-LBD (Homo sapiens (Human), UniProt P51449).
Result: 6.69

Q: Please look at Cc1nn(C(F)F)cc1S(=O)(=O)N1C[C@H](NC(=O)C(F)(F)F)Cc2ncc(NC(=O)c3c(F)cccc3Cl)cc21 and tell me its recorded pEC50 on RORγ-LBD (Homo sapiens (Human), UniProt P51449).
Result: 7.51

Q: Please look at O=C(Nc1cnc2c(c1)N(S(=O)(=O)c1cccc(C(F)(F)F)c1)CC(N1CCOC1=O)C2)c1c(Cl)cccc1Cl (stereo in doubt) and tell me its recorded pEC50 on RORγ-LBD (Homo sapiens (Human), UniProt P51449).
Result: 7.77

Q: Please look at CC(=O)NC1Cc2ncc(NC(=O)c3c(Cl)cccc3Cl)cc2N(S(=O)(=O)c2cccc(C3CC3)c2)C1 (stereo not drawn) and tell me its recorded pEC50 on RORγ-LBD (Homo sapiens (Human), UniProt P51449).
Result: 7.60

Q: Please look at Cc1nn(C(F)F)cc1S(=O)(=O)N1C[C@@H](CN2CC[C@@H](O)C2)Cc2ncc(NC(=O)[C@@H](C)C(C)(C)C)cc21 and tell me its recorded pEC50 on RORγ-LBD (Homo sapiens (Human), UniProt P51449).
Result: 6.77

Q: Please look at CC(C)(C)OC(=O)N[C@@H]1Cc2ncc(NC(=O)c3c(Cl)cccc3Cl)cc2N(S(=O)(=O)c2cccc(Cl)c2)C1 and tell me its recorded pEC50 on RORγ-LBD (Homo sapiens (Human), UniProt P51449).
Result: 8.22

Q: Please look at O=C(Nc1ccc2c(c1)N(S(=O)(=O)c1cccc(Cl)c1)C[C@H](CN1CCCC1=O)O2)c1c(Cl)cccc1Cl and tell me its recorded pEC50 on RORγ-LBD (Homo sapiens (Human), UniProt P51449).
Result: 7.59

Q: Please look at CN(C)C[C@H]1CN(S(=O)(=O)c2cccc(Cl)c2)c2cc(NC(=O)c3c(Cl)cccc3Cl)cnc2O1 and tell me its recorded pEC50 on RORγ-LBD (Homo sapiens (Human), UniProt P51449).
Result: 7.38
